Every entry's value here was drawn from paper PMC5700166.

Kindly supply the reported binding signal values for the records listed here.
- ASSAYED_SYSTEM: GST-Co-NF-kB (Capsaspora owczarzaki, UniProt F1ARL5 200-546)
- Sequence: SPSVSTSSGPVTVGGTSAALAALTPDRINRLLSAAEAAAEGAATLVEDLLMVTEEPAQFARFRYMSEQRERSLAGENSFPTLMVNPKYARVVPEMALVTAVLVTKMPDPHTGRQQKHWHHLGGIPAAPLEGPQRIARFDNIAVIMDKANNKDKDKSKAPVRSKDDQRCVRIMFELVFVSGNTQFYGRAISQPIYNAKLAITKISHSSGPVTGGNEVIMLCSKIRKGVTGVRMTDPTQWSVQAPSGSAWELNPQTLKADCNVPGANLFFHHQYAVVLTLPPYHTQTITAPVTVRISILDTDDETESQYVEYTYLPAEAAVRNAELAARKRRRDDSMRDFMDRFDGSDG
- EXPERIMENTAL_DETAILS: protein-binding microarray (PBM); PBM: ~300 nM protein, 6 mM HEPES pH 7.8, 80 mM KCl, 0.5 mM EDTA, 0.5 mM EGTA, 6% glycerol, 35 ng/ul poly-dIdC, 1% milk, 1 h, room temperature; high values mean tight binding
- CONDITION_INFO: dsDNA, one strand shown
Answers are plain numbers, in z-score.

A selection of reference data follows.
CCGATTAACATCAGGGGGTAGGATGATGTTAATCGGGTCTTGATTCGCTTGACGCTGCTG; 3.64
CCGATTAACATCACCCAACCCCCTGATGTTAATCGGGTCTTGATTCGCTTGACGCTGCTG; 2.21
CCGATTAACATCAATCTCCCCCCTGATGTTAATCGGGTCTTGATTCGCTTGACGCTGCTG; 8.72
CCGATTAACATCAAATCACCCCCTGATGTTAATCGGGTCTTGATTCGCTTGACGCTGCTG; 6.61
CCGATTAACATCAGGGATCACCCTGATGTTAATCGGGTCTTGATTCGCTTGACGCTGCTG; 1.02

# map each sequence to its binding signal
1. CCGATTAACATCAGAAATACCCATGATGTTAATCGGGTCTTGATTCGCTTGACGCTGCTG
2. CCGATTAACATCACCTGGTCGGGTGATGTTAATCGGGTCTTGATTCGCTTGACGCTGCTG
3. CCGATTAACATCACGCAACCCCCTGATGTTAATCGGGTCTTGATTCGCTTGACGCTGCTG
4. CCGATTAACATCAAGGATTCCCCTGATGTTAATCGGGTCTTGATTCGCTTGACGCTGCTG

Result:
[1.74, 1.5, 2, 6.56]

###

Kindly supply the reported binding signal values for the records listed here.
- ASSAYED_SYSTEM: GST-Dm-Relish (Drosophila melanogaster, UniProt Q94527 99-473)
- Sequence: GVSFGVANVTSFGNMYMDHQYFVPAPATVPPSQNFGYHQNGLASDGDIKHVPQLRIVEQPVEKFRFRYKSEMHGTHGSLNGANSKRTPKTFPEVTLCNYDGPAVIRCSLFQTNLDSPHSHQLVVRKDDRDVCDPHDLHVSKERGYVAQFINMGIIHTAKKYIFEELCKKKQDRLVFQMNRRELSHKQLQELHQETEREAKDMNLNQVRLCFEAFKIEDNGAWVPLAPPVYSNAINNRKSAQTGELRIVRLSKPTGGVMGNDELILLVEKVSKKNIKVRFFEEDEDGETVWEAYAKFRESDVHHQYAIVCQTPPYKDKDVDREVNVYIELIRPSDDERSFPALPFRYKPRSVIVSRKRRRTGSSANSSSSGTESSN
- EXPERIMENTAL_DETAILS: protein-binding microarray (PBM); PBM: ~300 nM protein, 6 mM HEPES pH 7.8, 80 mM KCl, 0.5 mM EDTA, 0.5 mM EGTA, 6% glycerol, 35 ng/ul poly-dIdC, 1% milk, 1 h, room temperature; high values mean tight binding
- CONDITION_INFO: dsDNA, one strand shown
Enter the number, and then the unit.

A selection of reference data follows.
CCGATTAACATCACCCAGGGAAATGATGTTAATCGGGTCTTGATTCGCTTGACGCTGCTG; 1.46 z-score
CCGATTAACATCACGGGAATCCCTGATGTTAATCGGGTCTTGATTCGCTTGACGCTGCTG; 10.1 z-score
CCGATTAACATCAAAATTCCCTGTGATGTTAATCGGGTCTTGATTCGCTTGACGCTGCTG; 5.96 z-score
CCGATTAACATCAGGGGAAAATATGATGTTAATCGGGTCTTGATTCGCTTGACGCTGCTG; 4.1 z-score
CCGATTAACATCAAGGGGGATCCTGATGTTAATCGGGTCTTGATTCGCTTGACGCTGCTG; 8.84 z-score
CCGATTAACATCAGGGGAAAGAATGATGTTAATCGGGTCTTGATTCGCTTGACGCTGCTG; 3.01 z-score
CCGATTAACATCAGGCAATCCCCTGATGTTAATCGGGTCTTGATTCGCTTGACGCTGCTG; 6.78 z-score
CCGATTAACATCAAGGAAAGTACTGATGTTAATCGGGTCTTGATTCGCTTGACGCTGCTG; 4.7 z-score

// switching to the query sequence
Q: // lookup binding signal for CCGATTAACATCACAGGGTTTCCTGATGTTAATCGGGTCTTGATTCGCTTGACGCTGCTG
Result: 2.82 z-score

###

Kindly supply the reported binding signal values for the records listed here.
- ASSAYED_SYSTEM: GST-Nv-NF-kB (Cys allele) (Nematostella vectensis, UniProt E5G601 2-411)
- Sequence: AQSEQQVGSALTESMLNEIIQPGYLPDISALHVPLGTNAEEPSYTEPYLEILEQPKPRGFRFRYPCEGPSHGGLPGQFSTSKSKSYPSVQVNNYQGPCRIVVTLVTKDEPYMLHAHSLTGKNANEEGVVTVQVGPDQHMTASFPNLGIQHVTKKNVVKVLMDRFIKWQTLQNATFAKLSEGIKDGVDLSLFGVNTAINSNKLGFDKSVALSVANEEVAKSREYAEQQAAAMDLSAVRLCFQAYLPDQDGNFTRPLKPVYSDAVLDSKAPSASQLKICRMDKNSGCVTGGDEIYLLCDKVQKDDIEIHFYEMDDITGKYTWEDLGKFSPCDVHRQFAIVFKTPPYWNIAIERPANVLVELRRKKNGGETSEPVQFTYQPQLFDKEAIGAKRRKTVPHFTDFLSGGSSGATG
- EXPERIMENTAL_DETAILS: protein-binding microarray (PBM); PBM: ~300 nM protein, 6 mM HEPES pH 7.8, 80 mM KCl, 0.5 mM EDTA, 0.5 mM EGTA, 6% glycerol, 35 ng/ul poly-dIdC, 1% milk, 1 h, room temperature; high values mean tight binding
- CONDITION_INFO: dsDNA, one strand shown
Enter the number, and then the unit.

A selection of reference data follows.
CCGATTAACATCAATAACCCCCATGATGTTAATCGGGTCTTGATTCGCTTGACGCTGCTG; 4.47 z-score
CCGATTAACATCAGGGGGGAACATGATGTTAATCGGGTCTTGATTCGCTTGACGCTGCTG; 4.35 z-score
CCGATTAACATCAAGGTACCCCCTGATGTTAATCGGGTCTTGATTCGCTTGACGCTGCTG; 2.82 z-score
CCGATTAACATCAGGGCGCCCCCTGATGTTAATCGGGTCTTGATTCGCTTGACGCTGCTG; 4.59 z-score

# map each sequence to its binding signal
1. CCGATTAACATCAGGGGGTTACCTGATGTTAATCGGGTCTTGATTCGCTTGACGCTGCTG
2. CCGATTAACATCAGAATATCCCATGATGTTAATCGGGTCTTGATTCGCTTGACGCTGCTG
3. CCGATTAACATCAGGATTCCCCATGATGTTAATCGGGTCTTGATTCGCTTGACGCTGCTG

Result:
6.63 z-score
1.17 z-score
9.44 z-score

# map each sequence to its binding signal
1. CCGATTAACATCAAAATCCCCCATGATGTTAATCGGGTCTTGATTCGCTTGACGCTGCTG
2. CCGATTAACATCAGGGGCTTTACTGATGTTAATCGGGTCTTGATTCGCTTGACGCTGCTG

Result:
["9.28 z-score", "5.11 z-score"]

###

- ASSAYED_SYSTEM: GST-Ap-NF-kB RHD (Exaiptasia pallida (Aiptasia), UniProt A0A913YAJ5 2-422)
- Sequence: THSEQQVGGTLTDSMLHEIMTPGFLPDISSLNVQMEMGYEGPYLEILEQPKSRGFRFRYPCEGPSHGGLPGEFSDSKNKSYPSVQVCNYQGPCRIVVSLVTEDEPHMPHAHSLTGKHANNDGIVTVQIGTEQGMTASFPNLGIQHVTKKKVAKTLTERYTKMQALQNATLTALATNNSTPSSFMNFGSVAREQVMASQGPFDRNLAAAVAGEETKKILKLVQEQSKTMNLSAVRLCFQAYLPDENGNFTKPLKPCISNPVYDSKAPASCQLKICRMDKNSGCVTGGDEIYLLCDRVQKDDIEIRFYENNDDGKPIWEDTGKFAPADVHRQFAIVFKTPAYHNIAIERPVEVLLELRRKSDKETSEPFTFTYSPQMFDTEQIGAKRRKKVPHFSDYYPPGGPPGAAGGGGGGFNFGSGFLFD
- EXPERIMENTAL_DETAILS: protein-binding microarray (PBM); PBM: ~300 nM protein, 6 mM HEPES pH 7.8, 80 mM KCl, 0.5 mM EDTA, 0.5 mM EGTA, 6% glycerol, 35 ng/ul poly-dIdC, 1% milk, 1 h, room temperature; Ap Aiptasia and Nv Nematostella (sea anemones) / Co Capsaspora / Aq Amphimedon (sponge) / Dm Drosophila / Hu human; RHD is the Rel homology domain; high values mean tight binding
- CONDITION_INFO: dsDNA, one strand shown
MEASURED_METRIC: binding signal (z-score)
One number for each entry, in z-score.

A selection of reference data follows.
CCGATTAACATCAAGGGGGAAAATGATGTTAATCGGGTCTTGATTCGCTTGACGCTGCTG; 6.85
CCGATTAACATCAAAATTCCCCTTGATGTTAATCGGGTCTTGATTCGCTTGACGCTGCTG; 10.1

# map each sequence to its binding signal
1. CCGATTAACATCAGAGAACCCCCTGATGTTAATCGGGTCTTGATTCGCTTGACGCTGCTG
2. CCGATTAACATCAGGGAATATAATGATGTTAATCGGGTCTTGATTCGCTTGACGCTGCTG
3. CCGATTAACATCAAATCTTTCCCTGATGTTAATCGGGTCTTGATTCGCTTGACGCTGCTG
4. CCGATTAACATCAAGGAATACCCTGATGTTAATCGGGTCTTGATTCGCTTGACGCTGCTG
5. CCGATTAACATCAAAAACCCCCATGATGTTAATCGGGTCTTGATTCGCTTGACGCTGCTG

Result:
7.89
3.2
3.05
4.85
9.51

# map each sequence to its binding signal
1. CCGATTAACATCACCCCAACCCCTGATGTTAATCGGGTCTTGATTCGCTTGACGCTGCTG
2. CCGATTAACATCAGGCATACCCCTGATGTTAATCGGGTCTTGATTCGCTTGACGCTGCTG
3. CCGATTAACATCAGGGATATACCTGATGTTAATCGGGTCTTGATTCGCTTGACGCTGCTG
4. CCGATTAACATCAGGTTTTCCCATGATGTTAATCGGGTCTTGATTCGCTTGACGCTGCTG
5. CCGATTAACATCACCCTGGGAAATGATGTTAATCGGGTCTTGATTCGCTTGACGCTGCTG
6. CCGATTAACATCAGAGACTTCCCTGATGTTAATCGGGTCTTGATTCGCTTGACGCTGCTG
7. CCGATTAACATCAAAATTCCCATTGATGTTAATCGGGTCTTGATTCGCTTGACGCTGCTG
8. CCGATTAACATCAGGGATTACCCTGATGTTAATCGGGTCTTGATTCGCTTGACGCTGCTG

Result:
[2.55, 1.96, 3.17, 3.58, 1.68, 1.92, 3.68, 8.01]

# map each sequence to its binding signal
1. CCGATTAACATCACAAACTCCCCTGATGTTAATCGGGTCTTGATTCGCTTGACGCTGCTG
2. CCGATTAACATCAAAATCCCAGGTGATGTTAATCGGGTCTTGATTCGCTTGACGCTGCTG
3. CCGATTAACATCAAAGGGAATTCTGATGTTAATCGGGTCTTGATTCGCTTGACGCTGCTG

Result:
[7.26, 2.06, 4.72]
